System: NCI/ADR-RES
measurement-description: NCI tumour cell line growth inhibition, 48 h
Active and inactive are the calls of the source. Rule as the data show it: active = GI50 up to about 1.1 µM and inactive = higher.
Answer with one of the outcomes given here: Yes for active, No for inactive

Recorded results for 10 molecules are shown here.
molecule: CC(C)CC(=O)NC(NC(C)C)(C(F)(F)F)C(F)(F)F
class-label: No
//
molecule: C/C(=C\CO)CC/C=C(\C)CNc1ccccc1
class-label: No
//
molecule: O=C(O)Cc1cc(F)ccc1C(=O)O
class-label: No
//
molecule: CC(=O)Nn1c(Cc2ccc(Cl)cc2)nn(C)c1=O
class-label: No
//
molecule: C[C@H](CS)C(=O)N1c2ccccc2C[C@H]1C(=O)O
class-label: No
//
molecule: COc1cc2cc(C(=O)N3C[C@H](CCl)c4c3cc(O)c3ccccc43)[nH]c2c(OC)c1OC
class-label: Yes
//
molecule: COc1cc(/C=C/C2=NN(c3cccc(S(=O)(=O)O)c3)C3(C2)C(Cl)C(=O)N3c2nc3ccccc3s2)ccc1O (stereo unspecified)
class-label: No
//
molecule: NC(=S)N1N=C(c2ccccc2O)CC1c1ccccc1 (stereo unspecified)
class-label: No
//
molecule: c1ccc(-c2cs[s+]c2)cc1
class-label: No
//
molecule: N#CCc1n[nH]c2nc(SCc3ccccc3)nc(N3CCCCC3)c12
class-label: No

Please turn your attention to the following entry.
Record request — test call for `N#C/C(=C\N1CCNC1=S)C(=O)c1ccc2ccccc2c1` No

Sourced from ChEMBL document CHEMBL1201862
